// provenance: patent US7652020B2

# Tested system: purified catalytic domain of recombinant human TACE (rhTACEc) (Homo sapiens, UniProt P78536, N452Q/S266A)
# Construct: Residue 215 to 477 with two mutation (S266A and N452Q) and a 6×His tail; 6xHis (C); made in house; host or cells: baculovirus/Hi5 insect cells
# Sequence (P78536 215-477 S266A/N452Q): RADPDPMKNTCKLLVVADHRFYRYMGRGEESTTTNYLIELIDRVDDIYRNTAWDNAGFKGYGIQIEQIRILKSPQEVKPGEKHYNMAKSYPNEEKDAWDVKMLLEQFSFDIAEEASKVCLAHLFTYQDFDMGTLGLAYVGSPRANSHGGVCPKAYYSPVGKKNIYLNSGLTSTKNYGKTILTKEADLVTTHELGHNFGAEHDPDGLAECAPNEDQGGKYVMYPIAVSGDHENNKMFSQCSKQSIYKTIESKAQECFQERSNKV
# Protocol details: TACE kinetic assay: cleavage of internally quenched peptide substrate SPDL-3, fluorescence
# Format: biochemical
# Run parameters: TACE inhibitory activity, class symbols; read-out: Ki
pKi: −log10 of the molar value.
Quick reference for pKi among some compounds
Experimental readout: pKi

{"Chemical structure": "CNc1nc([C@H]2CCCN2C(=O)[C@H](O)[C@@H](O)C(=O)N[C@H](C)c2ccc(-n3cccn3)cc2)cs1", "Experimental readout": "pKi", "Observed result": "> 7.70"}
{"Chemical structure": "C[C@@H](NC(=O)[C@H](O)[C@@H](O)C(=O)N1CCC[C@@H]1c1cn2ccccc2n1)c1ccc(-n2cccn2)cc1", "Experimental readout": "pKi", "Observed result": "> 7.70"}
{"Chemical structure": "C[C@@H](NC(=O)[C@](C)(O)[C@@H](O)C(=O)N1Cc2cccnc2C1)c1ccc(-n2cccc2C#N)cc1", "Experimental readout": "pKi", "Observed result": "7.00 to 7.70"}
